Overview of reported MIC ATB combined with Example 11 @8 μg/ml across a group of compounds:
- Tested on: ECO UFR39
- protocol.description: MIC, broth microdilution (CLSI), substance alone or ATB combined with compound at 4 or 8 μg/mL
- Format: cell-based, E. coli
- applied.conditions: ECO UFR39; with Example 11 at 8 μg/ml
- Procedure: Compounds of the present invention were assessed against genotyped bacterial strains alone or in combination with an antibacterial. In the assays, MICs of said compounds or combination of antibiotics with fixed concentrations of said compounds (4 or 8 μg/mL) were determined by the broth microdilution method according to the Clinical Laboratory Standards Institute (CLSI-M7-A7). […]

Examples with answers:
- C[C@@H](O)[C@H]1C(=O)N2C(C(=O)O)=C(SCCN=CN)C[C@H]12: <0.031 µg/mL
- COCC1=C(C(=O)O)N2C(=O)[C@@H](NC(=O)/C(=N\OC)c3csc(N)n3)[C@H]2SC1 [POD, Cefpodoxime, reference compound]: <0.031 µg/mL
- CN(C)c1cc(NC(=O)CNC(C)(C)C)c(O)c2c1C[C@H]1C[C@H]3[C@H](N(C)C)C(O)=C(C(N)=O)C(=O)[C@@]3(O)C(O)=C1C2=O: <0.031 µg/mL
- NCC[C@H](O)C(=O)N[C@@H]1C[C@H](N)[C@@H](O[C@H]2O[C@H](CN)[C@@H](O)[C@H](O)[C@H]2O)[C@H](O)[C@H]1O[C@H]1O[C@H](CO)[C@@H](O)[C@H](N)[C@H]1O [AN, Amikacin, reference compound]: <0.031 µg/mL
- C=CC1=C(C(=O)O)N2C(=O)[C@@H](NC(=O)/C(=N\OCC(=O)O)c3csc(N)n3)[C@H]2SC1 [FIX, Cefixime, reference compound]: <0.031 µg/mL

Inquiry: Assign MIC ATB combined with Example 11 @8 μg/ml to the following record: CO/N=C(\C(=O)N[C@@H]1C(=O)N2C(C(=O)O)=C(COC(N)=O)CS[C@H]12)c1ccco1 [FUR, Cefuroxime, reference compound]
Reply text: <0.031 µg/mL

Inquiry: Give the reported MIC ATB combined with Example 11 @8 μg/ml for this compound. CC1(C)S[C@@H]2[C@H](NC(=O)[C@H](N)c3ccc(O)cc3)C(=O)N2[C@H]1C(=O)O [AMX, Amoxicillin, reference compound]
Reply text: <0.031 µg/mL

----------
- System: PAE UFR48
- protocol.description: MIC, broth microdilution (CLSI), substance alone or ATB combined with compound at 4 or 8 μg/mL
- Format: cell-based, P. aeruginosa
- applied.conditions: ATB FEP; compound @4 μg/ml; PAE UFR48
compounds and their reported MIC ATB combined with compound

Illustrative cases are given below, each with its answer.
• NC[C@@H]1CC(=NOCC(N)=O)[C@@H]2CN1C(=O)N2OS(=O)(=O)[O-].O=C(O)C(F)(F)F.[Na+] [Example 4] = <0.031 µg/mL
• NCCON=C1C[C@@H](C(N)=O)N2C[C@@H]1N(OS(=O)(=O)[O-])C2=O.[Na+] [Example 2] = 32 µg/mL
• NC[C@@H]1C(c2ncco2)=C[C@@H]2CN1C(=O)N2OS(=O)(=O)[O-].O=C(O)C(F)(F)F.[Na+] [Example 5] = <0.031 µg/mL

Turning now to a further record.
Inquiry: Write down measured MIC ATB combined with compound (PAE UFR48) for this compound. O=C1N2CC(c3ncco3)=C[C@H](C2)N1OS(=O)(=O)[O-].[Na+] [Example 9]
Reply text: 32 µg/mL

----------
- Test system: ABA UFR152
- protocol.description: MIC, broth microdilution (CLSI), substance alone or ATB combined with compound at 4 or 8 μg/mL
- Type: cell-based, A. baumannii
- applied.conditions: Acinetobacter baumannii, substance alone, read-out: MIC
Collected MIC values appear next to each entry.

Reference set, count: 5
* O=C1N2CC(n3cccn3)=C[C@H](C2)N1OS(=O)(=O)[O-].[Na+] [Example 15] | > 32 µg/mL
* NCCON=C1C[C@@H](C(N)=O)N2C[C@@H]1N(OS(=O)(=O)[O-])C2=O.[Na+] [Example 2] | > 32 µg/mL
* NC[C@H]1C=C(c2cnco2)[C@@H]2CN1C(=O)N2OS(=O)(=O)[O-].O=C(O)C(F)(F)F.[Na+] (relative stereo) [Example 1] | > 32 µg/mL
* NCCCn1c2c(sc1=O)C1CN(C2)C(=O)N1OS(=O)(=O)O (stereo not drawn) [Example 10] | 32 µg/mL
* O=C1N2CC(n3cccn3)=CC(C2)N1OS(=O)(=O)[O-].[Na+] (stereo not drawn) [Example 11] | > 32 µg/mL

Attention now turns to another entry.
Inquiry: Report measured MIC; entry is O=C1N2CC(c3ncco3)=C[C@H](C2)N1OS(=O)(=O)[O-].[Na+] [Example 9]
Reply text: > 32 µg/mL

----------
- Test system: ECL P99
- protocol.description: MIC, broth microdilution (CLSI), substance alone or ATB combined with compound at 4 or 8 μg/mL
- Type: cell-based, E. cloacae
- applied.conditions: Enterobacter cloacae; substance alone; ECL P99; read-out: MIC
Returns: string. Value is Y if measured MIC is below 2 µg/mL, and N if it is greater than or equal to it.

Example entries begin here.
• O=C1N2CC(n3cccn3)=CC(C2)N1OS(=O)(=O)[O-].[Na+] (centres unmarked) = N
• NCCON=C1C[C@@H](C(N)=O)N2C[C@@H]1N(OS(=O)(=O)[O-])C2=O.[Na+] = N
• NCCn1c2c(sc1=O)C1CN(C2)C(=O)N1OS(=O)(=O)[O-].[Na+] (centres unmarked) = Y

Inquiry: Is the reported MIC for CCN1CCN(C(=O)N[C@@H](C(=O)N[C@@H]2C(=O)N3[C@@H]2SC(C)(C)[C@@H]3C(=O)O)c2ccccc2)C(=O)C1=O [PIP, Piperacillin, reference compound] strictly below 2 µg/mL?
Reply text: N

Inquiry: hey, is MIC for CC1(C)S[C@@H]2[C@H](NC(=O)[C@H](N)c3ccc(O)cc3)C(=O)N2[C@H]1C(=O)O [AMX, Amoxicillin, reference compound] lower than 2 µg/mL or not?
Reply text: N

Inquiry: Strictly below 2 µg/mL in MIC? NC[C@H]1C=C(c2cnco2)[C@@H]2CN1C(=O)N2OS(=O)(=O)[O-].O=C(O)C(F)(F)F.[Na+] (relative stereo)
Reply text: Y

Inquiry: Record `NC[C@@H]1C(c2ncco2)=C[C@@H]2CN1C(=O)N2OS(=O)(=O)[O-].O=C(O)C(F)(F)F.[Na+]` : is its MIC strictly below 2 µg/mL?
Reply text: Y

Inquiry: is_below(MIC, 2 µg/mL) for CO/N=C(\C(=O)N[C@@H]1C(=O)N2C(C(=O)O)=C(COC(N)=O)CS[C@H]12)c1ccco1 [FUR, Cefuroxime, reference compound] ?
Reply text: N

Inquiry: Given the entry C[C@@H]1O[C@@H]1P(=O)(O)O [FOS, Fosfomycin, reference compound] , would its reported MIC be below 2 µg/mL?
Reply text: N

Inquiry: Lab log: compare recorded MIC with 2 µg/mL; is it strictly lower for `C[C@@H](O)[C@H]1C(=O)N2C(C(=O)O)=C(S[C@@H]3CN[C@H](C(=O)N(C)C)C3)[C@H](C)[C@H]12` ?
Reply text: Y

----------
Measured MIC, listed per entry.
- Test system: KPN UFR42
- protocol.description: MIC, broth microdilution (CLSI), substance alone or ATB combined with compound at 4 or 8 μg/mL
- Type: cell-based, K. pneumoniae
- applied.conditions: Klebsiella pneumoniae
Please respond with the number in µg/mL and leave the unit unwritten.

* O=C1N2CC(n3cccn3)=CC(C2)N1OC(F)(F)C(=O)[O-].[Li+] (stereo not shown) [Example 13] | 16

Next:
Inquiry: Give MIC; test system KPN UFR42; compound O=C1N2CC(c3ncco3)=CC(C2)N1OC(F)(F)C(=O)O (stereo not shown) [Example 7]
Reply text: 16

----------
- Tested on: SPN 49619
- protocol.description: MIC, broth microdilution (CLSI), substance alone or ATB combined with compound at 4 or 8 μg/mL
- Type: cell-based, S. pneumoniae
- applied.conditions: substance alone; SPN 49619
Collected MIC values appear next to each entry.
Please state the figure in µg/mL; there is no need to write the unit.

Inquiry: Give a short answer stating reported MIC for O=C1N2CC(n3ccnn3)=CC(C2)N1OS(=O)(=O)[O-].[Na+] (stereo not shown) .
Reply text: 8

Inquiry: Annotate the compound `NC[C@@H]1CC(=NOCC(N)=O)[C@@H]2CN1C(=O)N2OS(=O)(=O)[O-].O=C(O)C(F)(F)F.[Na+]` with its measured MIC.
Reply text: 32

Inquiry: State its MIC for this compound: `O=C1N2CC(n3ccnn3)=C[C@H](C2)N1OS(=O)(=O)[O-].[Na+]`
Reply text: 4

Inquiry: Check the records and state MIC for O=C(O)C(F)(F)F.O=C1N2C[C@H](c3scnc3[C@H]2c2ncc[nH]2)N1OS(=O)(=O)[O-].[Na+] (relative stereo)
Reply text: 16
